# Assay target: TRKA-G595R (Homo sapiens, UniProt P04629, G595R)
# Construct: purchased Carna Biosciences
# Sequence (P04629 33-796 G595R): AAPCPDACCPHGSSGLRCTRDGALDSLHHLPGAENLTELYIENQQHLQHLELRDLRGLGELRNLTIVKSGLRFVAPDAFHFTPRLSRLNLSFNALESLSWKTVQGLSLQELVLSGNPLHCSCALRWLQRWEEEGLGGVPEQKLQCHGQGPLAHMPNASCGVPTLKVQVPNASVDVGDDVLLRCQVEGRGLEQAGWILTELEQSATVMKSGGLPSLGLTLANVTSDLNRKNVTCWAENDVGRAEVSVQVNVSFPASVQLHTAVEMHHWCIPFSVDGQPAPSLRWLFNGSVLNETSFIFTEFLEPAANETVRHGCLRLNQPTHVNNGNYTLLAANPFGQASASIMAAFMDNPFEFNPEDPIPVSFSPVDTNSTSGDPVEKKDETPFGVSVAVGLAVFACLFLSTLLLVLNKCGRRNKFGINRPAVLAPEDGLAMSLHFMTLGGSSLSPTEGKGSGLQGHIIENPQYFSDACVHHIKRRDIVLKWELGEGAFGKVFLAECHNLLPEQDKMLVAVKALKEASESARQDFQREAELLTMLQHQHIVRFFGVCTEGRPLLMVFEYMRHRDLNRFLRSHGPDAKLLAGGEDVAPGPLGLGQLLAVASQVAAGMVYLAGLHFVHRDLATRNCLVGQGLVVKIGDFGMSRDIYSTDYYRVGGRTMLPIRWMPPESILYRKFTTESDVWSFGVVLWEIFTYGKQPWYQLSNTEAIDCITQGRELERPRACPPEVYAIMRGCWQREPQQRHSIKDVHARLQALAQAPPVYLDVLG
# Measurement notes: TRK kinase mutant inhibition (HTRF), TRKA-G595R
# Format: biochemical
pIC50: −log10 of the molar value.
Listing of recorded pIC50 by entry.

{"Molecule": "CC(Nc1ccn2ncc(-c3cnn(C(F)F)c3)c2n1)c1cc(F)ccc1OCCF (centres unmarked)", "Rel": "=", "pIC50": 8.96}
{"Molecule": "C[C@@H](Nc1ccn2ncc(-c3cnn(C)c3)c2n1)c1cc(F)ccc1OC(F)F", "Rel": "=", "pIC50": 8.92}
{"Molecule": "C[C@@H](Nc1ccn2ncc(-c3cn[nH]c3)c2n1)c1cc(F)ccc1OCCF", "Rel": "=", "pIC50": 8.96}
{"Molecule": "CC(Nc1ccn2ncc(-c3cn[nH]c3)c2n1)c1ccc(OCC(F)F)c(F)c1 (centres unmarked) [Control Compound D, reference compound]", "Rel": "<", "pIC50": 6.00}
{"Molecule": "C[C@@H](Nc1ccn2ncc(-c3cnn(CCO)c3)c2n1)c1cc(F)ccc1OCC(F)F", "Rel": "=", "pIC50": 9.06}
{"Molecule": "CC(Nc1ccn2ncc(-c3cn[nH]c3)c2n1)c1cc(F)cc(OCC(F)F)c1 (centres unmarked) [Control Compound C, reference compound]", "Rel": "<", "pIC50": 6.00}
{"Molecule": "C[C@@H](Nc1ccn2ncc(-c3cn[nH]c3)c2n1)c1cc(F)ccc1OCC(F)(F)F", "Rel": "=", "pIC50": 9.12}
{"Molecule": "C[C@@H](Nc1ccn2ncc(-c3cnn(CCO)c3)c2n1)c1cc(F)ccc1OCC(F)(F)F", "Rel": "=", "pIC50": 9.03}

Numbers sourced from patent US20220177477A1.
